# measurementNotes: Biodistribution in B16/F1 melanoma-bearing C57 mice
# Format: in vivo
# appliedConditions: female, C57, mouse, bone, iv, total radioactivity, 2 h post-injection, NDP blockade; read-out: Bone uptake
measuredQuantity: tissue uptake at 2 h (%ID/g)
Write it as a number; the unit %ID/g goes unstated.

Per the record, CCCC[C@H](NC(=O)CN1CCN(CC(=O)O)CCN(CC(=O)O)CCN(CC(=O)O)CC1)C(=O)N[C@H]1CC(=O)NCCCC[C@@H](C(N)=O)NC(=O)[C@H](Cc2c[nH]c3ccccc23)NC(=O)[C@H](CCCNC(=N)N)NC(=O)[C@@H](Cc2ccccc2)NC(=O)[C@H](Cc2c[nH]cn2)NC1=O [^111In-DOTA-Nle-CycMSHhex, metal not drawn] has tissue uptake at 2 h of 0.05

---

# measurementNotes: Biodistribution in B16/F1 melanoma-bearing C57 mice
# Format: in vivo
# appliedConditions: female, C57, mouse, kidneys, iv, 0.037 MBq, total radioactivity, 0.5 h post-injection; read-out: Kidneys uptake
measuredQuantity: tissue uptake at 0.5 h (%ID/g)
Write it as a number; the unit %ID/g goes unstated.

Per the record, CCCC[C@H](NC(=O)CN1CCN(CC(=O)O)CCN(CC(=O)O)CCN(CC(=O)O)CC1)C(=O)N[C@H]1CC(=O)NCCCC[C@@H](C(N)=O)NC(=O)[C@H](Cc2c[nH]c3ccccc23)NC(=O)[C@H](CCCNC(=N)N)NC(=O)[C@@H](Cc2ccccc2)NC(=O)[C@H](Cc2c[nH]cn2)NC1=O [^111In-DOTA-Nle-CycMSHhex, metal not drawn] has tissue uptake at 0.5 h of 16.2

---

# measurementNotes: Biodistribution in B16/F1 melanoma-bearing C57 mice
# Type: in vivo
# appliedConditions: female, C57, mouse, stomach, iv, 0.037 MBq, total radioactivity, 24 h post-injection; read-out: Stomach uptake
# Protocol: All the animal studies were conducted in compliance with Institutional Animal Care and Use Committee approval. The mice were housed five animals per cage in sterile micro-isolator cages in a temperature- and humidity-controlled room with a 12-h light/12-h dark schedule. […] Groups of 5 mice were sacrificed at 0.5, 2, 4 and 24 h post-injection, and tumors and organs of interest were harvested, weighed and counted. […] The tumor and organs of interest were harvested, weighed and counted. […]
measuredQuantity: tissue uptake at 24 h (%ID/g)
Write it as a number; the unit %ID/g goes unstated.

Per the record, CCCC[C@H](NC(=O)CN1CCN(CC(=O)O)CCN(CC(=O)O)CCN(CC(=O)O)CC1)C(=O)N[C@H]1CC(=O)NCCCC[C@@H](C(N)=O)NC(=O)[C@H](Cc2c[nH]c3ccccc23)NC(=O)[C@H](CCCNC(=N)N)NC(=O)[C@@H](Cc2ccccc2)NC(=O)[C@H](Cc2c[nH]cn2)NC1=O [^111In-DOTA-Nle-CycMSHhex, metal not drawn] has tissue uptake at 24 h of 1.34

---

# measurementNotes: Biodistribution in B16/F1 melanoma-bearing C57 mice
# Assay type: in vivo
# appliedConditions: female, C57, mouse, skin, iv, 0.037 MBq, total radioactivity, 0.5 h post-injection; read-out: Skin uptake
measuredQuantity: tissue uptake at 0.5 h (%ID/g)
Write it as a number; the unit %ID/g goes unstated.

Per the record, CCCC[C@H](NC(=O)CN1CCN(CC(=O)O)CCN(CC(=O)O)CCN(CC(=O)O)CC1)C(=O)N[C@H]1CC(=O)NCCCC[C@@H](C(N)=O)NC(=O)[C@H](Cc2c[nH]c3ccccc23)NC(=O)[C@H](CCCNC(=N)N)NC(=O)[C@@H](Cc2ccccc2)NC(=O)[C@H](Cc2c[nH]cn2)NC1=O [^111In-DOTA-Nle-CycMSHhex, metal not drawn] has tissue uptake at 0.5 h of 4.11
